recorded.conditions: acidic group
value.kind: pKa

COC(=S)C1c2ccccc2-c2ccccc21    7.4

Ask | Bench note: what pKa did "Cc1ccc(/C=C/C(=O)O)cc1" show?
Reply | 4.56

Ask | Bench note: what pKa did "CC(C)(C)[NH2+]CC(=O)c1ccc(O)cc1" show?
Reply | 7.9

Ask | Bench note: what pKa did "CC(C)[NH2+]CCc1ccc(O)cc1" show?
Reply | 9.59

Ask | Bench note: what pKa did "SCC[NH2+]CCc1ccccc1" show?
Reply | 7.85

Ask | Bench note: what pKa did "O=C(OCc1ccccc1)c1ccc(O)cc1" show?
Reply | 8.31

Ask | Bench note: what pKa did "CO[C@H]1C[C@@H]1C(=O)O" show?
Reply | 4.47

Ask | Bench note: what pKa did "Oc1cccc2cc3ccccc3cc12" show?
Reply | 9.88

Ask | Bench note: what pKa did "C[n+]1ccc2cccc(O)c2c1" show?
Reply | 5.81

Ask | Bench note: what pKa did "O=S1(=O)OC(c2cc(Br)c(O)c(Br)c2)(c2cc(Br)c(O)c(Br)c2)c2ccccc21" show?
Reply | 4.2

* * *

This listing pairs compounds with measured pKa.
recorded.conditions: basic group

ONc1ccccc1    -0.32
O=C([O-])c1ccc([N+](=O)[O-])c2cccnc12    4.67
Cc1nc(N)c2cn[nH]c2n1    5.41
Cc1ccccc1NC(=N)Nc1ccccc1C    9.67
Cc1cc(C)n(-c2cccc[nH+]2)n1    -2.4
CSc1ccc(N)cc1    4.4
CCCN(CCC)CCCNC(=O)/C=N/[O-]    10.3
Cc1cc(C)ncn1    2.7
CN(C)CCCCNC(=O)/C=N/[O-]    10.1
Nc1ccc(Cc2ccc(N)cc2)cc1    5.1

Ask | Bench note: what pKa did "CCNc1ccccc1C" show?
Reply | 4.92

Ask | Bench note: what pKa did "C1CNCCNCCNC1" show?
Reply | 11.7

Ask | Bench note: what pKa did "c1ccc2c(CC3=NCCN3)cccc2c1" show?
Reply | 10.3

Ask | Bench note: what pKa did "CSc1cnc2ccccc2n1" show?
Reply | 0.26

Ask | Bench note: what pKa did "C/N=c1/scc(C)n1C" show?
Reply | 9.97

Ask | Bench note: what pKa did "CC[NH+](CC)CCOCCN(C)C" show?
Reply | 8.4

Ask | Bench note: what pKa did COc1ccc2c(c1)CC(C)N2 (stereo not drawn) show?
Reply | 6.2

Ask | Bench note: what pKa did "Cc1n[nH]c2ncnc(N)c12" show?
Reply | 4.61

Ask | Bench note: what pKa did "CCCN(CCC)c1ccc([N+](=O)[O-])cc1" show?
Reply | 1.06

Ask | Bench note: what pKa did "Cc1ccc2nc3ccc(N)cc3nc2c1" show?
Reply | 4.8

Ask | Bench note: what pKa did CC[NH+](CC)CCCC(C)Nc1ccnc2ccc(OC)cc12 (stereo not drawn) show?
Reply | 8.7

Ask | Bench note: what pKa did "CCc1cnccc1N" show?
Reply | 9.17

Ask | Bench note: what pKa did "CCOCCn1c(N2CCC[NH+](CCCCn3cc(C(=O)[O-])cn3)CC2)nc2ccccc21" show?
Reply | 5.1

Ask | Bench note: what pKa did "Cc1cc(C)c(C[NH3+])cc1N" show?
Reply | 4.57

Ask | Bench note: what pKa did "Cc1cccnc1C" show?
Reply | 6.57

Ask | Bench note: what pKa did "CC(C)CN(C)c1ccccc1" show?
Reply | 5.2

Ask | Bench note: what pKa did "CC(=O)n1cnc2ccccc21" show?
Reply | 1.8

Ask | Bench note: what pKa did "Nc1ccnc(-c2cc(N)ccn2)c1" show?
Reply | 8.8

Ask | Bench note: what pKa did "Cc1nc2cc([N+](=O)[O-])ccc2[nH]1" show?
Reply | 5.16

Ask | Bench note: what pKa did "C1CNC[NH2+]C1" show?
Reply | 4.71

Ask | Bench note: what pKa did "NCCCCNCCCN" show?
Reply | 10.6

Ask | Bench note: what pKa did "C[C@@H]1CC[C@@H]2CCCN21" show?
Reply | 12

Ask | Bench note: what pKa did "Oc1ccccc1CN1CCCNCCC[NH2+]CCC1" show?
Reply | 6.64
